- System: OVCAR-5
- protocol description: NCI tumour cell line growth inhibition, 48 h
The source made the active and inactive calls. Cut-off read from the data, not from the text of the source: active = GI50 up to about 1.1 µM and inactive = higher.
Reported GI50 is given for each of the following molecules.

| molecule | GI50 |
| --- | --- |
| C=CCNC(=S)N1CC(C)C(=O)Nc2cc(Cl)ccc21 (stereo unspecified) | > 100 µM (inactive) |
| CC1=C(C(N)=O)C(c2ccncc2)C(C#N)=C2SCC(=O)N12 (stereo unspecified) | > 100 µM (inactive) |
| CSc1ncnc2c1ncn2CCC(=O)O | > 100 µM (inactive) |
| CCCC(=O)N/S(=N/S(=O)(=O)c1ccc(Cl)cc1)C(Cl)(Cl)Cl (stereo unspecified) | > 100 µM (inactive) |
| Cc1ccc(-c2c(C#N)c(-c3ccc(C)cc3)n(NS(=O)(=O)c3ccccc3)c(=O)c2C#N)cc1 | > 100 µM (inactive) |
| O=C(O)[C@@H]1C2CC([C@@H]1C(=O)O)[C@H](N1C(=O)CCC1=O)[C@@H]2Br (stereo partly specified) | > 100 µM (inactive) |
| CC(=O)OCC(C)C1=C(OC(C)=O)C(=O)C2(C)C/C=C(/C)CC/C=C(\C)CCC(OC(C)=O)C(C)CCC12 (stereo unspecified) | 12.8 µM (inactive) |
| Cc1cc(C)nc(NS(=O)(=O)c2ccc(NNc3c4ccccc4nc4c(C(=O)Nc5ccc(S(=O)(=O)Nc6ncccn6)cc5)cccc34)cc2)n1 | 16.4 µM (inactive) |
| C/C(=N\NC(=O)C[n+]1ccccc1)c1sc(-c2nc(C)c(/C(C)=N/NC(=O)C[n+]3ccccc3)s2)nc1C | > 100 µM (inactive) |
| COC(=O)c1c(O)ccc2c1c1c(n2Cc2cccc(C)c2)C(=O)c2ccccc2C1=O | 22.5 µM (inactive) |
| Nc1nc(N)c2c(n1)NC(=O)c1c(c3ccccc3n1Cc1ccc(Cl)cc1)C2 | 48.9 µM (inactive) |
| O=C(/C=C/c1cccs1)c1ccc(Cl)s1 | 54.3 µM (inactive) |
| c1ccc(-c2cn3c(nc4ccccc43)c(-c3ccccc3)n2)cc1 | > 54.2 µM (inactive) |
| COC(=O)C1CCC(=O)N1C(=O)Cc1ccc(OC)cc1 (stereo unspecified) | > 100 µM (inactive) |
| CC(C)=CCCC(C)C1=C(O)C(=O)C(C)=CC1=O (stereo unspecified) | 16.4 µM (inactive) |
| COc1cc(-c2cccs2)sc1-c1cccs1 | 22.3 µM (inactive) |
| CCCCCCCCCCCCCC(=O)OCC1OC(=O)CC1O (stereo unspecified) | > 100 µM (inactive) |
| O=[N+]([O-])c1ccc2nc(Nc3ccccc3)c(Nc3ccccc3)nc2c1 | 2.64 µM (inactive) |
| COc1ccc(-n2cnc3c(NC(C)(C)C(=O)O)ncnc32)cc1 | > 100 µM (inactive) |
| Cc1c2ncccc2cc2oc3ccccc3c(=O)c12 | 16.1 µM (inactive) |
| O=C(CC1(O)C(=O)Nc2c(Cl)cc(Cl)cc21)c1ccccc1 (stereo unspecified) | > 100 µM (inactive) |

---

- System: MDA-MB-231
- protocol description: NCI tumour cell line growth inhibition, 48 h
Active and inactive are the calls of the source. Cut-off read from the data, not from the text of the source: active = GI50 up to about 1.1 µM and inactive = higher.

| molecule | GI50 |
| --- | --- |
| O=C1Nc2ccccc2C(=O)/C1=C/NC(=S)NCc1ccccc1 | > 100 µM (inactive) |
| CC1(C)CCCCCC(O)C(O)CCC(C)(C)C1=O (centres undefined) | > 100 µM (inactive) |
| Nc1c(Br)cc(-c2nc3ccccc3s2)cc1Br | > 100 µM (inactive) |
| Cc1cc2c(cc1N)C(C)C1(CCC(=O)N2Cc2ccccc2)OCCO1 (centres undefined) | > 100 µM (inactive) |
| CCC1c2[nH]c3ccccc3c2C[C@H]2C(=O)NC(CCC(=O)OC(C)(C)C)C(=O)N12 (some centres undefined) | 66.4 µM (inactive) |
| C=CCOC1=C(OCC=C)C(C2COC(C)(C)O2)OC1=O (centres undefined) | > 100 µM (inactive) |
| CC1(C)CC2=NC(SSC3=C(C#N)C(c4ccc(Br)cc4)C4=C(O)CC(C)(C)CC4=N3)=C(C#N)C(c3ccc(Br)cc3)C2=C(O)C1 (centres undefined) | > 100 µM (inactive) |
| C=C1CC[C@@]2(C)[C@@H]([C@@H]1C)[C@H]1CC[C@@H]3[C@@]4(C)CC[C@H](O)C(C)(C)[C@@H]4CC[C@@]3(C)[C@]1(C)C[C@@H]2O | 1.96 µM (inactive) |
| CCCC(=O)N/S(=N/S(=O)(=O)c1ccc(Cl)cc1)C(Cl)(Cl)Cl (centres undefined) | > 100 µM (inactive) |

Values were extracted from ChEMBL document CHEMBL1201862.
